Biological target: SCD5 (Homo sapiens)
Construct: host or cells: S. cerevisiae ole1Δ strain (W303 pdr1Δ pdr3Δ background), plasmid pRS316 with TDH3 promoter and CYC1 terminator
Sequence (Q86SK9 whole entry): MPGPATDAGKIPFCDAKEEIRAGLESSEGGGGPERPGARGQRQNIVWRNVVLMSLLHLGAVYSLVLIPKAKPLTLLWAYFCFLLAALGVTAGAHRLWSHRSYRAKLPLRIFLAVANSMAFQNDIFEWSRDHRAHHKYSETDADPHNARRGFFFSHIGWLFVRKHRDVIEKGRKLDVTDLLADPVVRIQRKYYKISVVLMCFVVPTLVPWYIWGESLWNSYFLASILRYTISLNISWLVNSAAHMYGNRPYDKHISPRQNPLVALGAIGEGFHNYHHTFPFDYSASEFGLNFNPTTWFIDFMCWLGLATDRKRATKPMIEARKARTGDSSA
Assay: Growth inhibition of humanized yeast strain expressing SCD5 as sole desaturase
Assay type: cell-based
Conditions: humanized yeast strain expressing SCD5
Quick rule: SCD5 % Max Inhibition of at least 60% means Met, below that means Not met.

molecule: Cc1nn(C)c2cc(-c3noc(C4CCN(Cc5ccccc5)C(=O)C4)n3)ccc12 (centres unmarked)
label class: Not met
//
molecule: COc1ccc(-c2noc(C3CCN(C(=O)/C=C/C(=O)c4ccccc4)CC3)n2)cc1OC
label class: Not met
//
molecule: COc1ccc(-c2nc(C3CCN(C(=O)CNC(=O)c4ccccc4)CC3)no2)cc1OC
label class: Met
//
molecule: COc1ccc(-c2noc(C3CCN(C(=O)CNC(=O)C(C)C)CC3)n2)cc1OC
label class: Met
//
molecule: Cc1nn(C)c2cc(-c3noc(C4CCN(C(=O)CNC(=O)c5cccc(C#N)c5)CC4)n3)ccc12
label class: Not met
//
molecule: Cc1nn(C)c2cc(-c3noc(C4CCN(C(=O)c5ccc(C(C)C)cc5)CC4)n3)ccc12
label class: Not met
//
molecule: Cc1nn(C)c2cc(-c3noc(N4CCN(C(=O)c5ccccc5)CC4)n3)ccc12
label class: Met

API: the following record is the query input.
Does the reported SCD5 % Max Inhibition for Cc1noc2cc(-c3noc(C4CCN(C(=O)C5CC(=O)N(c6ccccc6)C5)CC4)n3)ccc12 (centres unmarked) fall at or above the 60% mark?
Not met
